This section presents compounds with their documented AUC values.
Assay: Pharmacokinetic experiment in cannulated Sprague-Dawley rats (PO and IV)
Assay type: in vivo
Settings: rat, PO, 10 mg/kg, plasma, read-out: AUC PO (10 mg/kg) (converted)
Quick note: unit goes after the number.

Here's what some known entries look like.
- compound: "NC(=O)c1cccc(-c2cc(OC(=O)NC3CCCCC3)ccc2OC(F)F)c1"
  value_observed: "2430 ng·h/mL"
- compound: "NS(=O)(=O)c1cccc(-c2cc(OC(=O)NC3CCCCC3)ccc2F)c1"
  value_observed: "867 ng·h/mL"
- compound: "CNC(=O)c1cccc(-c2cccc(OC(=O)NC3CCCCC3)c2)c1 [[drawing 127] comparison compound, reference compound]"
  value_observed: "1500 ng·h/mL"

## Task For the compound `CNC(=O)c1cccc(-c2cc(OC(=O)NC3CCCCC3)ccc2OC(F)F)c1` , what AUC is on record?
## Result 2480 ng·h/mL

## Task Same thing, different compound: `CNC(=O)c1cccc(-c2cc(OC(=O)NC3CCCCC3)ccc2F)c1`
## Result 3700 ng·h/mL
